Each recorded value in this set is attributed to patent US12086788B2.

IC50 listing for selected molecules.
biological target: WT BTK (Homo sapiens, UniProt Q06187); assay: Caliper-based biochemical enzymatic assay (IC50), WT BTK; details: 0.5 nM enzyme, ATP 16 μM, room temperature 3 h; read-out: WT BTK IV50 (nM) (irreversible inhibition)
Sequence (Q06187 whole entry): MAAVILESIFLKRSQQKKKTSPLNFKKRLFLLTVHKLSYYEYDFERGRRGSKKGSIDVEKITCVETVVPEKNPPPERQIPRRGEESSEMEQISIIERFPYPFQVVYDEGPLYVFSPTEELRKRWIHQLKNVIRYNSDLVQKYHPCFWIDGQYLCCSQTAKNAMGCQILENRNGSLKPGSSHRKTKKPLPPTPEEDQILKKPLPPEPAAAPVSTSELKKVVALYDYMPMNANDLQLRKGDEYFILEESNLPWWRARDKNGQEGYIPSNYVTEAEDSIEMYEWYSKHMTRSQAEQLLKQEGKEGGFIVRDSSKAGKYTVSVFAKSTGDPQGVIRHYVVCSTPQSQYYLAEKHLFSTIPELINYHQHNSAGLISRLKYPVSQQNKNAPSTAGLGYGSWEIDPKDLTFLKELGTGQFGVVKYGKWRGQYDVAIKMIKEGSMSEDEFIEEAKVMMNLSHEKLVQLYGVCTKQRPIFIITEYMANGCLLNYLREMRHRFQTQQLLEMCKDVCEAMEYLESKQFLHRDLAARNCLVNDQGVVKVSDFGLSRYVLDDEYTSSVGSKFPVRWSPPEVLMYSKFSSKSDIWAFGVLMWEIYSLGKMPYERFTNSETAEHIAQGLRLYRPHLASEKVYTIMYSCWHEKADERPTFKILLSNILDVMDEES

Answered cases to consult:
> print(dat)
                                   molecule                            test.target  value.type  reported
1  C=CC(=O)Nc1cc(Nc2nc(-c3ccnc(N4CCn5c(cc6c5CC(C)(C)C6)C4=O)c3C)cn(C)c2=O)ccc1N1CCN(C2COC2)C[C@@H]1C  WT BTK (Homo sapiens, UniProt Q06187)        IC50    < 1 nM
2  C=CC(=O)Nc1cc(Nc2nc(-c3ccnc(N4CCn5c(cc6c5CC(C)(C)C6)C4=O)c3CO)cn(C)c2=O)ccc1N1CCC(N2CCOCC2)CC1C (stereo not shown)  WT BTK (Homo sapiens, UniProt Q06187)        IC50    < 1 nM
3  C=CC(=O)Nc1cc(Nc2nc(-c3ccnc(N4CCn5c(cc6c5CC(C)(C)C6)C4=O)c3CO)cn(C)c2=O)ccc1N1CCN(C)CC1  WT BTK (Homo sapiens, UniProt Q06187)        IC50   0.25 nM

In the following, a different molecule is considered.
Req: Supply measured IC50 of "C=CC(=O)Nc1cc(Nc2nc(-c3ccnc(N4CCn5c(cc6c5CC(C)(C)C6)C4=O)c3CO)cn(C)c2=O)ccc1N1CCN(C2COC2)C[C@@H]1C" in your reply.
Resp: < 1 nM
